# Test system: DMS 273 small cell lung
# assay-comment: NCI tumour cell line growth inhibition, 48 h
This listing pairs compounds with measured TGI.
measured-attribute: TGI

| compound | result |
| --- | --- |
| CCOC(=O)NC(=O)c1cn(CCCCCCCCCCC(=O)NCCCN2CCN(CCCNC(=O)CCCCCCCCCCn3cc(C(=O)NC(=O)OCC)c(=O)[nH]c3=O)CC2)c(=O)[nH]c1=O | > 100 µM |
| Cc1ccccc1C=NC12CC3CC(CC(C3)C1)C2 | > 100 µM |
| O=C(CC(=O)N1N=C(n2ccc3ccccc32)CC1c1ccccc1)Nc1ccc(Cl)cc1 (centres undefined) | > 100 µM |
| CCC1(OC(=O)CNC)C(=O)OCc2c1cc1n(c2=O)Cc2cc3ccccc3nc2-1 (centres undefined) | < 0.0144 µM |

====

# Tested on: COLO 205 colon
# assay-comment: NCI tumour cell line growth inhibition, 48 h; in the data active means GI50 below about 0.43 µM; inactive means the rest
Classes used: active, inactive

| compound | discrete-label |
| --- | --- |
| CCC1=C[C@@H]2CN(C1)Cc1c([nH]c3ccccc13)[C@@](C(=O)OC)(c1cc3c(cc1OC)N(C)[C@H]1[C@@](O)(C(=O)OC)[C@H](OC(C)=O)[C@]4(CC)C=CCN5CC[C@]31[C@@H]54)C2 | active |
| O=C(COc1cccc(/C=C2\COc3ccccc3C2=O)c1)c1ccccc1 | inactive |
| N.N.N.N.N.N#Cc1nn[n-]n1.[Cl-].[Co+3] | inactive |
| COc1cc(N2CCN(C(C)C)CC2)ccc1Nc1nc(Nc2ccc(F)cc2C(=O)NCC(O)CO)c2cc[nH]c2n1 (centres undefined) | inactive |
| O=C(Nc1ccc(Oc2ccc(NC(=O)Nc3ccccc3Cl)cc2)cc1)Nc1ccccc1Cl | inactive |
| [N-]=[N+]=NCCCn1c2c(c3ccc([N+](=O)[O-])cc3c1=O)C(=O)c1cc(I)ccc1-2 | inactive |
| CCNC(=O)Oc1ccc(/C(=C(\C)c2ccc(Cl)cc2)c2ccc(OCCN(CC)CC)cc2)cc1 | inactive |
| O=C(/C=C/c1ccco1)Nc1ncc(Cc2cccc(C(F)(F)F)c2)s1 | active |
| CCOC(=O)Nc1ccc2nc(N3CCCCCC3)sc2c1 | inactive |
| O=C1Nc2ccc(O)cc2/C1=C\c1ccncc1 | inactive |
| CC(C)C(=O)Nc1ccc(-c2nc(-c3cccc(OCCN4CCOCC4)c3)c(-c3ccnc(Br)c3)[nH]2)cc1 | inactive |
| Clc1ccc(C2CC(c3cccc(Nc4ccncc4)c3)=NN2c2ccccc2)cc1 (centres undefined) | inactive |
| O=c1c2cccc(F)c2sc2c(NCCCNCCO)nc3ccccc3c12 | inactive |
| CC(=O)OC1CC2C(C)(C)CCC[C@]2(C)C2=C1C(O)=C(C(C)C)C(=O)C2=O (some centres undefined) | inactive |

====

This listing pairs compounds with measured TGI.
# Tested on: OVCAR-3 ovarian
# assay-comment: NCI tumour cell line growth inhibition, 48 h

| compound | TGI |
| --- | --- |
| O=C(CC(=O)N1N=C(n2ccc3ccccc32)CC1c1ccccc1)Nc1ccc(Cl)cc1 (stereo not given) | > 100 µM |
| CCCCCCCCCCCCNC(=O)N[C@H](C(=O)N[C@H]1/C=C/CCNC(=O)/C=C/[C@H](C)NC1=O)C(C)C | 0.935 µM |
| COc1cccc(CCNC(=O)CC(c2ccccc2)(c2ccccc2)c2ccccc2)c1 | > 100 µM |
| NC1=NCC(CN2CCCCC2)O1 (stereo not given) | > 100 µM |
| COc1ccc(N=N/C(=N\NC(=O)c2cc(Br)ccc2O)c2ccc(N(CCC#N)CCC#N)cc2OC)cc1 | > 150 µg/mL |
| N.N.N.N.N.N#Cc1nn[n-]n1.[Cl-].[Co+3] | > 100 µM |
| Cc1cc2nc3c(=O)[nH]c(=O)nc-3n(CC(O)C(O)C(O)CO)c2cc1N (stereo not given) | > 100 µM |
| O=c1oc2ccc3ccccc3c2cc1-c1nc(-c2ccc([N+](=O)[O-])cc2)n[nH]1 | > 100 µM |
| O=C(O)C1CC(C2CCCCN2)CN2CCCCC12 (stereo not given) | > 100 µM |
| O=C(NCCCl)NCCN1c2nc3ccccc3cc2Sc2cc3ccccc3nc21 | 16.1 µM |

====

# System: CCRF-CEM leukemia
# assay-comment: NCI tumour cell line growth inhibition, 48 h
This listing pairs compounds with measured GI50.
measured-attribute: GI50

| compound | measured-attribute | result |
| --- | --- | --- |
| COc1cccc(CCNC(=O)CC(c2ccccc2)(c2ccccc2)c2ccccc2)c1 | GI50 | 8.16 µM |
| C=C1C[C@@H](O)[C@@H](Br)C(C)(C)[C@]12CCC(C)(Br)C(Cl)C2 (stereo not given in full) | GI50 | 1.05 µM |
| O=C(COc1cccc(/C=C2\COc3ccccc3C2=O)c1)c1ccccc1 | GI50 | 1.98 µM |
| Clc1ccc(OCc2nnc3sc(SSc4nn5c(COc6ccc(Cl)cc6)nnc5s4)nn23)cc1 | GI50 | 76.7 µM |
| CCCCOC(=O)/C=C\C(=O)NC(N)=O | GI50 | 15.9 µM |

====

# Tested on: RPMI-8226 leukemia
# assay-comment: NCI tumour cell line growth inhibition, 48 h

| compound | unit-symbol | qualifier-symbol | TGI |
| --- | --- | --- | --- |
| O=C(NC(=O)c1ccccc1)OC(c1ccccc1)C1CO1 (centres undefined) | µM | > | 100 |
| CC(C)COC(=O)c1ccc(N=Cc2ccc(C=Nc3ccc(C(=O)OCC(C)C)cc3)cc2)cc1 | µM | > | 100 |
| CCCCCCc1cc2cc(C(=O)NCc3ccccc3)c(=N)oc2cc1O | µM | > | 100 |
| Cc1ccc2nc(Sc3c([N+](=O)[O-])ncn3C)[nH]c2c1 | µM | = | 78.7 |
| Cc1occc1C(=S)Nc1ccc(Cl)c(C(=O)OCC(C)C)c1 | µM | = | 75 |
| CN1CN(c2ccccc2)C2(CCN(C3Nc4ccccc4O3)CC2)C1=O (centres undefined) | µM | = | 58 |
| O=S(=O)(O)c1ccc(Nc2ccnc3ccccc23)cc1 | µM | > | 100 |
| CCOC(=O)Nc1ccc2nc(N3CCCCCC3)sc2c1 | µM | = | 26.3 |
| O=C1C[C@@H]2[C@@H](CCC23CCCC3)N1 | µM | > | 100 |
| O=C(/C=C/c1ccco1)Nc1ncc(Cc2cccc(C(F)(F)F)c2)s1 | µM | = | 10.9 |
| COC(=O)CC1C2(C)C3=C(C)C(c4ccoc4)CC3OC2C2OC(=O)C3(C)C=CC(=O)C1(C)C23 (centres undefined) | µM | = | 1.16 |
| OCC1C2CCC3(OCCO3)C12 (centres undefined) | µM | > | 100 |
| CC(O)CC(=O)CO[C@H]1[C@H](O)[C@@H](O)[C@@H](O)[C@@H]2NC(=O)c3c(cc4c(c3O)OCO4)[C@H]21 (some centres undefined) | µM | = | 0.147 |
| COC(=O)[C@H](C)NC(=O)C1(CNC(=O)[C@H](C)NC(=O)OC(C)(C)C)Cc2ccccc2-c2ccccc2C1 | µM | = | 23.9 |
| N.N.N.N.N.N#Cc1nn[n-]n1.[Cl-].[Co+3] | µM | > | 100 |
| CN(CC(=O)O)CC(=O)O | µM | > | 100 |
| CCOc1ccc(N2C(=O)NC3(c4ccccc4)N(C)C(=O)N(C)C23c2ccccc2)cc1 (centres undefined) | µM | > | 100 |
| COc1cc(N2CCN(C(C)C)CC2)ccc1Nc1nc(Nc2ccc(F)cc2C(=O)NCC(O)CO)c2cc[nH]c2n1 (centres undefined) | µM | > | 25 |
| COc1ccc2nc3c(C)cc4ccccc4n3c2c1 | µM | > | 100 |
| O=C(CSc1nnc(Cc2ccccc2)o1)Nc1ccc(Cl)cc1[N+](=O)[O-] | µM | = | 49.6 |
| N#CC(NNC(=O)c1c(Cl)c(Cl)c(Cl)c(Cl)c1-c1nc2ccc(C(=O)c3ccccc3)cc2[nH]1)c1ccccc1 (centres undefined) | µM | = | 24.9 |
| O=C(NCCCl)NCCN1c2nc3ccccc3cc2Sc2cc3ccccc3nc21 | µM | = | 1.64 |
| [N-]=[N+]=NCCCn1c2c(c3ccc([N+](=O)[O-])cc3c1=O)C(=O)c1cc(I)ccc1-2 | µM | = | 59.6 |
| COC(=O)C1CC(c2ccc(Cl)cc2)=NO1 (centres undefined) | µM | > | 100 |

====

# Test system: HL-60(TB) leukemia
# assay-comment: NCI tumour cell line growth inhibition, 48 h
This listing pairs compounds with measured log10(TGI).
measured-attribute: log10(TGI) (log10 of the value in µM)

| compound | measured-on | log10(TGI) |
| --- | --- | --- |
| Nc1nc(=S)c2ncn(C3OC(CO)C(O)C3O)c2[nH]1 (stereo not given) | HL-60(TB) leukemia | 1.04 |
| COc1ccc2nc3cc(Cl)ccc3c(NCCNCC(O)CO)c2c1 (stereo not given) | HL-60(TB) leukemia | 0.85 |
| CC1=NN(c2cccc(Cl)c2)C2(C1=Cc1cccs1)C(Cl)C(=O)N2c1nc2ccccc2s1 (stereo not given) | HL-60(TB) leukemia | 1.79 |
| COc1cc(N2CCN(C(C)C)CC2)ccc1Nc1nc(Nc2ccc(F)cc2C(=O)NCC(O)CO)c2cc[nH]c2n1 (stereo not given) | HL-60(TB) leukemia | 1.13 |
| CCOC(=O)C1=C(C)NC(C)=C(C(=O)OCCNC(=O)c2ccc(N=[N+]=[N-])cc2)C1c1ccccc1C(F)(F)F (stereo not given) | HL-60(TB) leukemia | 1.17 |
| NC(=O)c1cc(I)ccc1NC(=O)/C=C/c1ccccc1Cl | HL-60(TB) leukemia | -0.20 |
| CCCCC(O)(c1ccccc1)C(O)(c1ccccc1)c1c(F)c(F)c(F)c(F)c1F (stereo not given) | HL-60(TB) leukemia | 1.79 |
| CC(=O)N(C)c1cc(NCc2ccccc2)ccc1OCc1ccccc1 | HL-60(TB) leukemia | 1.89 |
